target: norepinephrine uptake site (Rattus norvegicus, UniProt Q63380); construct: from tissue; host or cells: rat cortical membranes (per the assay title); experiment: Norepinephrine uptake binding assay: [3H]desipramine binding to rat cortical membranes; conditions: read-out: Monoamine uptake binding assays: norepinephrine uptake binding assay, IC50
Sequence (Q63380 1-617): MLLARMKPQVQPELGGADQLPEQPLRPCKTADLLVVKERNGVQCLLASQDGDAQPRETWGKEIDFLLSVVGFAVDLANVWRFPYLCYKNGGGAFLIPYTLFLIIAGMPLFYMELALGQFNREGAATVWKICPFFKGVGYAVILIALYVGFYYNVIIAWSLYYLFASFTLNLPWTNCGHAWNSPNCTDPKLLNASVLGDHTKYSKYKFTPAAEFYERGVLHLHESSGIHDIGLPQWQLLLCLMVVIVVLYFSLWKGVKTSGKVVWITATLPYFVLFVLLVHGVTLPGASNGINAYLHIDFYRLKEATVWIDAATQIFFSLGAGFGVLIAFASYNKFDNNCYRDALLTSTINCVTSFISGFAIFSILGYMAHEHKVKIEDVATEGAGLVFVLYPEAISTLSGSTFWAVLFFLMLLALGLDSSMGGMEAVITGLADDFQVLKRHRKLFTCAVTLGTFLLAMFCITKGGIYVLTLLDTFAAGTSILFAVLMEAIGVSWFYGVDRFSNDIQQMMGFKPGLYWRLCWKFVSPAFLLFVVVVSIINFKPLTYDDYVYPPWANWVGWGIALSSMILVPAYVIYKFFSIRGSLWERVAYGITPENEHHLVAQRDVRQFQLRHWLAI
measured endpoint: pIC50
Remember, pIC50 is on a log scale: it is -log10 of the molar concentration.

Q: Entry CNCCC(c1cccc(F)c1)c1cccc(F)c1 [Compound 60] has what pIC50?
A: 6.04

* * *

system: central muscarinic cholinergic receptor; format: binding, rat; conditions: at 0.1 μM
measured endpoint: Central muscarinic cholinergic receptor: percent block of [3H]QNB binding (% at)
Output spec: scalar in % at, unitless text.

C[C@H](CN)C(c1cccc(F)c1)c1cccc(F)c1 | 25
N[C@@H]1CCCC1C(c1cccc(F)c1)c1cccc(F)c1 (some centres unmarked) | 11
C[C@@H](CN)C(c1cccc(F)c1)c1cccc(F)c1 | 42

Q: Entry `C[C@H](N)CC(c1cccc(F)c1)c1cccc(F)c1` has what Central muscarinic cholinergic receptor: percent block of [3H]QNB binding?
A: 11

Q: Entry `NCCC(c1cccc(F)c1)c1cccc(F)c1` has what Central muscarinic cholinergic receptor: percent block of [3H]QNB binding?
A: 8

Q: Entry `NCCC(c1ccccc1)c1ccccc1` has what Central muscarinic cholinergic receptor: percent block of [3H]QNB binding?
A: 4

Q: Entry `CCNCCC(c1cccc(F)c1)c1cccc(F)c1` has what Central muscarinic cholinergic receptor: percent block of [3H]QNB binding?
A: 9

Q: Entry N[C@H]1CCCC1C(c1cccc(F)c1)c1cccc(F)c1 (some centres unmarked) has what Central muscarinic cholinergic receptor: percent block of [3H]QNB binding?
A: 11

Q: Entry `Cc1ccc(F)cc1C(CCN)c1cc(F)ccc1C` has what Central muscarinic cholinergic receptor: percent block of [3H]QNB binding?
A: 1

Q: Entry `CNCCC(c1cccc(F)c1)c1cccc(F)c1` has what Central muscarinic cholinergic receptor: percent block of [3H]QNB binding?
A: 13

* * *

assay: Lethality (LD50) after oral administration in Frings mice; settings: mouse, in vivo
measured endpoint: LD50
Report the figure along with its unit, number first.

Q: Entry CC(N)CC(c1cccc(F)c1)c1cccc(F)c1 (stereo not shown) has what LD50?
A: 18.3 mg/kg

* * *

Monoamine uptake binding assays: dopamine uptake binding assay, percent block by entry:
molecular target: dopamine uptake site (Cavia porcellus); construct: from tissue; host or cells: guinea pig striatal membranes (per the assay title); assay: Dopamine uptake binding assay: [3H]WIN-35,428 binding to guinea pig striatal membranes; conditions: at 10 μM
Sequence (H0WCX4 1-619): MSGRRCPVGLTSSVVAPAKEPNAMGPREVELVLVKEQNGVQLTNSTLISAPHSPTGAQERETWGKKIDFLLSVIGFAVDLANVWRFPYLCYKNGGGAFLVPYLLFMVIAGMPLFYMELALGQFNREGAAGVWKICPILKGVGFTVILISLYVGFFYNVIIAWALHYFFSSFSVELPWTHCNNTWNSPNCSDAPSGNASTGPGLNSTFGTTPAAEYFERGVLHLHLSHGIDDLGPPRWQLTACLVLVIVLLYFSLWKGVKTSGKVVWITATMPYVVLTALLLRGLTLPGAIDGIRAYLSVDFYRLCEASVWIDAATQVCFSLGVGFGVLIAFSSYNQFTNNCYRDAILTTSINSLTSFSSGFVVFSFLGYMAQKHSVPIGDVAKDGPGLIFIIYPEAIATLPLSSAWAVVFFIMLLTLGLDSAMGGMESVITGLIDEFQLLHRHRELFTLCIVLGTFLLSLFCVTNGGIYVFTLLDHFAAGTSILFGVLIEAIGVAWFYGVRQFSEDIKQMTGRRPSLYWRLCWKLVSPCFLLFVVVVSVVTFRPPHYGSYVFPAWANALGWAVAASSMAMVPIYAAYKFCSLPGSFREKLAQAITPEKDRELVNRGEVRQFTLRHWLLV

C[C@@H](CN)C(c1cccc(F)c1)c1cccc(F)c1 | 0.1^f86% at
C[C@H](N)CC(c1cccc(F)c1)c1cccc(F)c1 | 0.1^f93% at
CCNCCC(c1cccc(F)c1)c1cccc(F)c1 | 0.1^f78% at

Q: Entry CC(CN)C(c1cccc(Cl)c1)c1cccc(Cl)c1 (stereo not drawn) has what Monoamine uptake binding assays: dopamine uptake binding assay, percent block?
A: 0.1^f97% at

Q: Entry `NCCC(c1cccc(F)c1)c1cccc(F)c1` has what Monoamine uptake binding assays: dopamine uptake binding assay, percent block?
A: 0.1^f81% at

Q: Entry N[C@H]1CCCC1C(c1cccc(F)c1)c1cccc(F)c1 (stereo partly drawn) has what Monoamine uptake binding assays: dopamine uptake binding assay, percent block?
A: 0.1^f98% at

Q: Entry `C[C@H](CN)C(c1cccc(F)c1)c1cccc(F)c1` has what Monoamine uptake binding assays: dopamine uptake binding assay, percent block?
A: 0.1^f99% at

Q: Entry `Cc1ccc(F)cc1C(CCN)c1cc(F)ccc1C` has what Monoamine uptake binding assays: dopamine uptake binding assay, percent block?
A: 0.1^f45% at

Q: Entry N[C@@H]1CCCC1C(c1cccc(F)c1)c1cccc(F)c1 (stereo partly drawn) has what Monoamine uptake binding assays: dopamine uptake binding assay, percent block?
A: 0.1^f99% at

* * *

target: NMDA receptor-ionophore complex (site labeled by [3H]MK-801); experiment: Inhibition of [3H]MK-801 binding in rat cortical/hippocampal washed membrane preparations; details: read-out: IC50 (μM) vs. [3H]MK-801; rat cortical/hippocampal washed membranes
Decide using IC50 alone. Strictly below 40 µM: TRUE. Equal to or above 40 µM: FALSE.

Reference set (2 entries):
NCCCOCCCCOCCCNC(=O)Cc1ccc2ccccc2c1 [Compound 17] | TRUE
CN[C@@H](C)CC(c1cccc(F)c1)c1cccc(F)c1 [Compound 69] | TRUE

Q: In plain terms, does NCC(c1ccc(F)cc1)c1ccc(F)cc1 [Compound 99] come in under 40 µM for IC50?
A: FALSE

Q: In plain terms, does COc1cccc(C(CCN)c2cccc(Cl)c2)c1 (stereo not drawn) [Compound 136] come in under 40 µM for IC50?
A: TRUE

Q: In plain terms, does NC(=O)CC(c1cccc(F)c1)c1cccc(F)c1 [Compound 151, 3,3-Bis(3-fluorophenyl)propanamide] come in under 40 µM for IC50?
A: FALSE

Q: In plain terms, does CCC(CCN)(c1cccc(F)c1)c1cccc(F)c1 [Compound 82] come in under 40 µM for IC50?
A: TRUE

* * *

target: NMDA receptor-ionophore complex (site labeled by [3H]MK-801); test: Inhibition of [3H]MK-801 binding in rat cortical/hippocampal washed membrane preparations; conditions: read-out: IC50 (μM) vs. [3H]MK-801; rat cortical/hippocampal washed membranes
IC50 by entry:

Fc1cccc(C(CCNCc2ccccc2)c2cccc(F)c2)c1 | 20.2 µM
NCCCNCCCNCCCNC(=O)Cc1c[nH]c2ccc(F)cc12 | > 100 µM
COc1ccccc1CC(=O)NC(CC(N)=O)C(=O)NCCCCCNCCCNCCCNC(=O)C(N)CCCCN (centres unmarked) | 219 µM
CC(N)C(C)C(c1cccc(F)c1)c1cccc(F)c1 (centres unmarked) | 2.3 µM
NCCCc1ccccc1-c1cccc(F)c1 | 14.3 µM

# ---- query compound ----
Q: Entry COc1cccc(C(CCN)c2cccc(F)c2)c1 (centres unmarked) has what IC50?
A: 0.871 µM

* * *

test: in vivo; conditions: Frings, mouse, in vivo, ip
TD50 by entry:

Consider the worked cases shown below.
Cc1ccc(F)cc1C(CCN)c1cccc(F)c1 (stereo not shown) [Compound 57] | 6 to 8 mg/kg
C[C@H](CN)C(c1cccc(F)c1)c1cccc(F)c1 [Compound 34] | 10 to 15 mg/kg
NCCC(c1cccc(Cl)c1)c1cccc(Cl)c1 [Compound 31, 3,3-bis(3-chlorophenyl)-1-propylamine] | 10 to 20 mg/kg

# ---- query compound ----
Q: Entry NCCC(Oc1cccc(Cl)c1)c1cccc(F)c1 (stereo not shown) [Compound 120] has what TD50?
A: 20 to 30 mg/kg

* * *

target: NMDA receptor-ionophore complex (site labeled by [3H]MK-801); test: Inhibition of [3H]MK-801 binding in rat cortical/hippocampal washed membrane preparations; details: read-out: IC50 (μM) vs. [3H]MK-801; rat cortical/hippocampal washed membranes
measured endpoint: IC50
Report the figure along with its unit, number first.

CCC(NCCC(c1ccccc1)c1ccccc1)c1ccc(OC)cc1 (stereo not drawn) [Compound 166] | 36.7 µM
NCCC(c1cccc(F)c1)c1cccc(F)c1 [Compound 20, 3,3-bis(3-fluorophenyl)-1-propylamine] | 0.252 µM

Q: Entry C[C@H](N)[C@H](C)C(c1ccccc1)c1ccccc1 [Compound 87] has what IC50?
A: 3 µM

* * *

target: NMDA receptor-ionophore complex (site labeled by [3H]MK-801); assay: Inhibition of [3H]MK-801 binding in rat cortical/hippocampal washed membrane preparations; conditions: read-out: IC50 (μM) vs. [3H]MK-801; rat cortical/hippocampal washed membranes
Decide using IC50 alone. Strictly below 5 µM: 1. Equal to or above 5 µM: 0.

Reference set (4 entries):
CNCCC(c1ccccc1)c1ccccc1 [Compound 67, N-methyl-3,3-diphenylpropylamine] | 1
NCC(Cc1cccc(F)c1)Cc1cccc(F)c1 [Compound 126] | 0
NCCOC(c1ccccc1)c1ccccc1 [Compound 88] | 0
CCC(N)CC(c1cccc(F)c1)c1cccc(F)c1 (stereo not shown) [Compound 23] | 0

Q: In plain terms, does CNCC=C(c1cccc(F)c1)c1cccc(F)c1 [Compound 106] come in under 5 µM for IC50?
A: 1

Q: In plain terms, does CC(C)(CN)C(c1cccc(F)c1)c1cccc(F)c1 [Compound 41] come in under 5 µM for IC50?
A: 0

Q: In plain terms, does CN(C)CCCN1c2ccccc2CCc2ccccc21 [Imipramine, reference compound] come in under 5 µM for IC50?
A: 0

Q: In plain terms, does CCC(NCCC(c1ccccc1)c1ccccc1)c1ccc(C)cc1 (stereo not shown) [Compound 169] come in under 5 µM for IC50?
A: 0

Q: In plain terms, does COc1ccccc1C(CCN)c1ccccc1 (stereo not shown) [Compound 97] come in under 5 µM for IC50?
A: 1

* * *

IC50 by entry:
molecular target: NMDA receptor-ionophore complex (site labeled by [3H]MK-801); experiment: Inhibition of [3H]MK-801 binding in rat cortical/hippocampal washed membrane preparations; conditions: read-out: IC50 (μM) vs. [3H]MK-801; rat cortical/hippocampal washed membranes
Output spec: scalar in µM, unitless text.

Consider the worked cases shown below.
NCC[C@H](c1cccc(F)c1)c1ccc(O)c(F)c1 (racemic) | 5.1
NCCC1c2ccccc2Sc2ccccc21 | 5.01
NCCC(Oc1cccc(F)c1)c1cccc(F)c1 (centres unmarked) | 0.087
N=C(N)CC(c1cccc(F)c1)c1cccc(F)c1 | 1.2
NCCC(c1ccccc1)c1ccccc1 | 2.1
NCCC(Oc1ccccc1F)c1cccc(F)c1 (centres unmarked) | 0.342
NCC[C@H](Oc1cccc(F)c1)c1ccccc1 | 0.123

# ---- query compound ----
Q: Entry NCCC(c1cccc(O)c1)c1cccc(F)c1 (centres unmarked) has what IC50?
A: 2
